Cited source: patent US20100196385A1

# tgt: DLL4 extracellular domain (R&D systems, catalog #1506-D4/CF) (UniProt Q9NR61 27-529, limits assumed)
# Sequence (Q9NR61 27-529 limits assumed): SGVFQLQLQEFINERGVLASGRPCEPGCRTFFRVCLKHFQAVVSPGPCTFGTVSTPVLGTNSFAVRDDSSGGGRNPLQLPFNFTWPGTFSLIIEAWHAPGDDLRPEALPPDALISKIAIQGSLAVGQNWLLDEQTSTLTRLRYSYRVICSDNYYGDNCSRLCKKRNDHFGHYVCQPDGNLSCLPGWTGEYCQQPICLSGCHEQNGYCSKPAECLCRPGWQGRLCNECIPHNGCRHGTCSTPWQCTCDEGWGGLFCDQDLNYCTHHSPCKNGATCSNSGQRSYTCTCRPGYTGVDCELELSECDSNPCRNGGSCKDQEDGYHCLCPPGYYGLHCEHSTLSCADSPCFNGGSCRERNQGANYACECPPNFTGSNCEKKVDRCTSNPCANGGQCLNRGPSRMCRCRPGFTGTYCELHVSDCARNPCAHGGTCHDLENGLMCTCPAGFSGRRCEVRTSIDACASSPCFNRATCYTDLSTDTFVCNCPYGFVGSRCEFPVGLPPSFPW
# assayMethodText: cell-based or functional assay
assayMetric: % inhibition 10 µg/ml, N = 1 (HUVEC proliferation on coated DLL4) (%)

binder	unitAbbreviation	readoutValue
17F3 (antibody, IgG2, V domains shown, Fully human; also used where no isotype is printed) VH: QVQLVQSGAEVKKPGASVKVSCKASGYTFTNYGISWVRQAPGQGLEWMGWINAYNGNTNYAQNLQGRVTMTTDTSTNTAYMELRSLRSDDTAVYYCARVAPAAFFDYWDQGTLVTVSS VL: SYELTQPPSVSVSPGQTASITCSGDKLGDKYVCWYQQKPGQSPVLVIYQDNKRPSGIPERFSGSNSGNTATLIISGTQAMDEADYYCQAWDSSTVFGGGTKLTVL	%	48
21H3 (antibody, IgG4, V domains shown, Fully human; used for IgG4 rows and where no isotype is printed; also called 21H3 IgG4) VH: QVQLVQSGAEVKKPGASVKVSCKASGYTFTNYGITWVRQAPGQGPEWMGWISAYNGNTNYAQKLQDRVTVTTDTSTSTAYMELRSLRSDDTAVYYCARDRVPRIPVTTEAFDIWGQGTMVTVSS VL: QSVLTQPPSASGTPGQRVTISCSGSSSNIGSYFVYWYQQLPGTAPKLLIYRNNQRPSGVPDRFSGSESGTSASLAISGLRSEDEADYYCAAWDDSLSGHWVFGGGTRLTVL	%	88
1D4 (antibody, IgG4, V domains shown, Fully human XenoMouse antibody; also used where no isotype is printed) VH: QLQLQESGPGLVKPSETLSLTCTVSGGSISSSSYYWGWIRQPPGKGLEWIGSFYYSRSTYYNPSLKSRVTISVDTSKNQFSLKLSSVTAADTAVHYCARGSIAVPDAFDIWGQGTMVTVSS VL: SYELTQPPSVSVSPGQTASITCSGDKLGDKFACWYQQKPGHSPVLVVYQDNKRPSGIPERFSGSNSGNSATLTISGTQAMDEADYYCQAWDSNTAVFGGGTKLTVL	%	73
